Assignment: determine reported pIC50 for the given compounds.
system tested: TNFα / TNFα receptor (TNFα R1/Fc) (Homo sapiens)
Construct: purchased R&D Systems
Sequence (P01375 77-233 limits assumed, species assumed): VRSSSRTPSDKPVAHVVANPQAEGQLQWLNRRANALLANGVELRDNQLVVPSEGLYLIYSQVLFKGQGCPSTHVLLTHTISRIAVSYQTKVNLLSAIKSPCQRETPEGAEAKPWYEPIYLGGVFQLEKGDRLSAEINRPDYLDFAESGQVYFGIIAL
assay: Inhibition of binding of TNFα to the TNFα receptor (plate ELISA competition)
applied conditions: Activity (IC50, inhibition of TNFα binding to TNFα R1/Fc), Table 2
pIC50: −log10 of the molar value.

Summary for this compound, "O=C1COc2ccc(cc2)C[C@@H](C(=O)N[C@H](Cc2ccccc2)C(=O)O)NC(=O)[C@H](CCc2ccccc2)NC(=O)[C@@H](Cc2ccc(-c3ccccc3)cc2)NC(=O)[C@H](Cc2ccncc2)N1" : pIC50 is > 5.00

Summary for this compound, "O=C1COc2ccc(cc2)C[C@H](C(=O)N[C@@H](Cc2ccccc2)C(=O)O)NC(=O)[C@@H](CCc2ccccc2)NC(=O)[C@H](Cc2ccc(-c3ccccc3)cc2)NC(=O)[C@@H](Cc2cccs2)N1" : pIC50 is > 5.00

Summary for this compound, "O=C1COc2ccc(cc2)C[C@@H](C(=O)N[C@H](Cc2ccccc2)C(=O)O)NC(=O)[C@@H](CCc2ccccc2)NC(=O)[C@H](Cc2ccc(-c3ccccc3)cc2)NC(=O)[C@@H](Cc2cccs2)N1" : pIC50 is > 5.00

Summary for this compound, "O=C1COc2ccc(cc2)C[C@@H](C(=O)N[C@@H](CO)C(=O)O)NC(=O)[C@H](CCc2ccccc2)NC(=O)[C@@H](Cc2ccc(-c3ccccc3)cc2)NC(=O)[C@H](Cc2cccs2)N1" : pIC50 is > 5.00

Summary for this compound, "O=C1COc2ccc(cc2)C[C@@H](C(=O)NC2(C(=O)O)CC2)NC(=O)[C@H](Cc2ccccc2)NC(=O)[C@@H](Cc2ccc(-c3ccccc3)cc2)NC(=O)[C@H](Cc2cccs2)N1" : pIC50 is > 5.00

---

system tested: TNFα / TNFα receptor (TNFα R1/Fc) (Homo sapiens)
Construct: purchased R&D Systems
assay: Inhibition of binding of TNFα to the TNFα receptor (plate ELISA competition)
applied conditions: Table 2; read-out: Activity (IC50, inhibition of TNFα binding to TNFα R1/Fc)
Numbered stars: 1 amine (or outer) side, 2 acyl side, 3 side chain; on linkers, the order of the positions; unused ones are H or OH. Bridge positions count the residues as written; N and C are the ends. Square brackets hold non-standard residues; d marks the D form. Peptide text beside a SMILES is read from it. Phe(3,4-(OMe)2) = COc1ccc(C[C@H](N)C(=O)O)cc1OC; Bip = N[C@@H](Cc1ccc(-c2ccccc2)cc1)C(=O)O; Phe(4-NH2) = Nc1ccc(C[C@H](N)C(=O)O)cc1; 2Thi = N[C@@H](Cc1cccs1)C(=O)O; d2Thi = N[C@H](Cc1cccs1)C(=O)O; Suc = O=C(CCC(=O)[*:2])[*:1]
property label: IC50

For O=C1COc2ccc(cc2)C[C@@H](C(=O)O)NC(=O)[C@H](CCc2ccccc2)NC(=O)[C@@H](Cc2ccc(-c3ccccc3)cc2)NC(=O)[C@H](Cc2ccc(Cl)cc2)N1 [Compound 707] on TNFα / TNFα receptor (TNFα R1/Fc) (Homo sapiens), measured IC50 was < 10 µM

For COc1ccc(C[C@@H]2NC(=O)[C@@H](Cc3cccs3)NC(=O)CCC(=O)Nc3ccc(cc3)C[C@@H](C(=O)O)NC(=O)[C@@H](Cc3ccccc3)NC2=O)cc1OC [Compound 93] ([d2Thi][Phe(3,4-(OMe)2)][dF][Phe(4-NH2)]-OH; linker N-4 via Suc) on TNFα / TNFα receptor (TNFα R1/Fc) (Homo sapiens), measured IC50 was > 100 µM

For O=C1COc2ccc(cc2)C[C@@H](C(=O)O)NC(=O)[C@H](CCc2ccccc2)NC(=O)[C@@H](Cc2ccc(-c3ccncc3)cc2)NC(=O)[C@H](Cc2ccncc2)N1 [Compound 666] on TNFα / TNFα receptor (TNFα R1/Fc) (Homo sapiens), measured IC50 was 10 to 30 µM

For O=C1CCC(=O)N[C@@H](Cc2cccs2)C(=O)N[C@@H](Cc2ccc(-c3ccccc3)cc2)C(=O)N[C@@H](Cc2ccccc2)C(=O)N[C@H](C(=O)O)Cc2ccc(cc2)N1 [Compound 495] ([2Thi][Bip]F[Phe(4-NH2)]-OH; linker N-4 via Suc) on TNFα / TNFα receptor (TNFα R1/Fc) (Homo sapiens), measured IC50 was > 100 µM
